Catalogue of molecules with associated logD
# assay.details: physchem
# condition.details: octanol/water, pH 7.4

| molecule | logD |
| --- | --- |
| C=CCNC(=O)Nc1nc2cc(-c3cccnc3)ccc2s1 | 3.9 |
| CCNC(=O)Nc1nc2cc(-c3cccnc3)c(NCC3CCOC3)nc2s1 (centres undefined) | 2.7 |
| C=CCNC(=O)Nc1nc2cc(-c3cccnc3)cnc2s1 | 2.9 |
| CCNC(=O)Nc1nc2cc(-c3cccnc3)c(N[C@H]3CCOC3)nc2s1 | 2 |

----------
# assay.details: AUC in po dosed Balb/c mouse infected with Mycobacterium tuberculosis H37Rv administered via gavage for 10 days starting 3 days post-infection measured at day 9 of drug dosing
# Type: ADME, organism-based
# condition.details: plasma
parameter: AUC (µg·h/mL)

| given.smiles | measurement.unit | value.measured |
| --- | --- | --- |
| CCNC(=O)Nc1nc2cc(-c3cccnc3)c(N[C@H]3CCOC3)nc2s1 | µg·h/mL | 200 |

----------
# System: Plasma
# condition.details: human
Classify as follows. Reported Cp(f) greater than or equal to 6 µM: yes (1). Reported Cp(f) below: no (0).

| molecule | qualitative.label |
| --- | --- |
| CCNC(=O)Nc1nc2cc(-c3ccn(CCOC)c(=O)c3)c(N[C@H]3CCOC3)nc2s1 | yes (1) |
| CCNC(=O)Nc1nc2cc(-c3cccnc3)c(N[C@H]3CCOC3)nc2s1 | yes (1) |
| CCNC(=O)Nc1nc2cc(-c3ccn(CCOC)c(=O)c3)c(OCC3CCOC3)nc2s1 (stereo not drawn) | yes (1) |
| CCNC(=O)Nc1nc2cc(-c3ccn(CCN(C)C)c(=O)c3)c(OCC3CCOC3)nc2s1 (stereo not drawn) | no (0) |
| C=CCNC(=O)Nc1nc2cc(-c3cccnc3)cnc2s1 | no (0) |
| CCNC(=O)Nc1nc2cc(-c3ccc(F)nc3)c(OCC3CCOC3)nc2s1 (stereo not drawn) | no (0) |
| CCNC(=O)Nc1nc2cc(-c3cncc(OCCN4CCOCC4)c3)c(OCC3CCOC3)nc2s1 (stereo not drawn) | yes (1) |
| CCNC(=O)Nc1nc2cc(-c3ccc(C)nc3)c(OCC3CCOC3)nc2s1 (stereo not drawn) | no (0) |
| CCNC(=O)Nc1nc2cc(-c3cncc(OC)c3)c(OCC3CCOC3)nc2s1 (stereo not drawn) | no (0) |
| CCNC(=O)Nc1nc2cc(-c3cc(C(C)C)n(C)c(=O)c3)c(OCC3CCOC3)nc2s1 (stereo not drawn) | no (0) |
| CCNC(=O)Nc1nc2cc(-c3ccn(C)c(=O)c3)c(OCC3CCOC3)nc2s1 (stereo not drawn) | no (0) |
| CCNC(=O)Nc1nc2cc(-c3cncc(OCCN(C)C)c3)c(OCC3CCOC3)nc2s1 (stereo not drawn) | yes (1) |
| CCNC(=O)Nc1nc2cc(-c3cccnc3)c(NCC3CCOC3)nc2s1 (stereo not drawn) | yes (1) |
| C=CCNC(=O)Nc1nc2cc(-c3cccnc3)ccc2s1 | no (0) |
| CCNC(=O)Nc1nc2cc(-c3ccn(CCN4CCOCC4)c(=O)c3)c(OCC3CCOC3)nc2s1 (stereo not drawn) | no (0) |
| CCNC(=O)Nc1nc2cc(-c3ccn(CCOC)c(=O)c3)c(O[C@@H]3CCOC3)nc2s1 | yes (1) |
